Parameter: normalized RNA/DNA level without ligand (log10). Scope: all listed entries.
B1: library; a variant is named by its letters at N, in order (parent)
chain: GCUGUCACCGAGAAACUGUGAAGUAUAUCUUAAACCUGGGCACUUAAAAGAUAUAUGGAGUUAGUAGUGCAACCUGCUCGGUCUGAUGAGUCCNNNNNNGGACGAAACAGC

Variants of: B1
Experiment: normalized RNA/DNA level without ligand (relative to sTRSVctl = 100) (log10 (% of sTRSVctl)); HEK293T; ligand: cyclic di-GMP (c-di-GMP-II aptamer); higher = less ribozyme self-cleavage, higher mRNA level
Settings: reporter: mCherry (pCS4076), ligand present: no
Reply with just the number.

Form: variant = UAAUCA ; normalized RNA/DNA level without ligand (log10) = 1.76

Form: variant = UGAUAC ; normalized RNA/DNA level without ligand (log10) = 1.69

Form: variant = CCCCGA ; normalized RNA/DNA level without ligand (log10) = 1.68

Form: variant = AUUAAC ; normalized RNA/DNA level without ligand (log10) = 1.65

Form: variant = AAACAU ; normalized RNA/DNA level without ligand (log10) = 1.6

Form: variant = CGCAUU ; normalized RNA/DNA level without ligand (log10) = 1.47

Form: variant = GAAGGG ; normalized RNA/DNA level without ligand (log10) = 1.53

Form: variant = UUUCCG ; normalized RNA/DNA level without ligand (log10) = 1.81

Form: variant = CAUUUC ; normalized RNA/DNA level without ligand (log10) = 1.67

Form: variant = AUGCCC ; normalized RNA/DNA level without ligand (log10) = 1.79

// provenance: the supplement of paper PMC6757056
